# credit: patent EP4714952A1

- TARGET_ENTITY: CYP3A-M (Homo sapiens)
- Sequence (P08684 2-503): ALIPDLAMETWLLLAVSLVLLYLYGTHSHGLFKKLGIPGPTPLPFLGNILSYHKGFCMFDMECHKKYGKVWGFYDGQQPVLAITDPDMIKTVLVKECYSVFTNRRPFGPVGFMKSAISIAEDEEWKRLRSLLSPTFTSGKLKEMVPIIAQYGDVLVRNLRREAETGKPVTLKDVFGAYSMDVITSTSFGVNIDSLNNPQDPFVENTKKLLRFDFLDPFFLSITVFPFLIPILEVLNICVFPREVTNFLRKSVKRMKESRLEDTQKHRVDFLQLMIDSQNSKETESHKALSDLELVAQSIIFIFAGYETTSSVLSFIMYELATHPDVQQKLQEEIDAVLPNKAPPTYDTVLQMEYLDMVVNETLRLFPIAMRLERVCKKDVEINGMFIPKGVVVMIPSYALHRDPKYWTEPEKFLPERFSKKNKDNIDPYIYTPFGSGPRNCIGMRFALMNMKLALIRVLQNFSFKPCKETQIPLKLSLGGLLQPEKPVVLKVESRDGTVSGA
- EXPERIMENTAL_PROTOCOL: In vitro CYP inhibition in human liver microsomes, CYP3A-M
- COND: microsomes
MEASUREMENT_NAME: IC50 at 10 min (µM)

>>> measured_value("CCOc1cc2c(cc1OC)-c1cc(N(CCO)c3c(C)cc(C)cc3C)nc(=O)n1CC2 [Compound 75]")
33.2
>>> measured_value("CCOc1cc2c(cc1OC)-c1cc(N(c3c(C)cc(C)cc3C)C(CO)CO)nc(=O)n1CC2 [Compound 80]")
43.5
>>> measured_value("CCOc1cc2c(cc1OC)-c1cc(N(CCC(=O)NCCO)c3c(C)cc(C)cc3C)nc(=O)n1CC2 [Compound 82]")
42.8

----------
- TARGET_ENTITY: CYP2C19 (Homo sapiens)
- Sequence (P33261 whole entry): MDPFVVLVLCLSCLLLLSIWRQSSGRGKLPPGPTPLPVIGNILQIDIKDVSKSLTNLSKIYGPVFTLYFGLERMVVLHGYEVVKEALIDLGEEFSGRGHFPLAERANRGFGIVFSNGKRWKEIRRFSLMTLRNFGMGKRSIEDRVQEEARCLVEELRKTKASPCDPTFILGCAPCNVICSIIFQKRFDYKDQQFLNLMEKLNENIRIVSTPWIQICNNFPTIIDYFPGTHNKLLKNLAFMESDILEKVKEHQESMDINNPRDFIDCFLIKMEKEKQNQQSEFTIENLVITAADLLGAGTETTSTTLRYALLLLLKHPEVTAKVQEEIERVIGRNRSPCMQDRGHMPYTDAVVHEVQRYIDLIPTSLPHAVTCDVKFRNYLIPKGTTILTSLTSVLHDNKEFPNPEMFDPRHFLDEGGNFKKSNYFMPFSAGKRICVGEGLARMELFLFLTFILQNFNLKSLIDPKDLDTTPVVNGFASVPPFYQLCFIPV
pIC50: −log10 of the molar value.
MEASUREMENT_NAME: pIC50

>>> measured_value("COc1cc2c(cc1OC)-c1c/c(=N\\c3c(C)cc(C)cc3C)n(CCNC(N)=O)c(=O)n1CC2 [Ensifentrine, reference compound]")
4.63
>>> measured_value("CCOc1cc2c(cc1OC)-c1cc(N(c3c(C)cc(C)cc3C)C(CO)CO)nc(=O)n1CC2 [Compound 80]")
4.50
>>> measured_value("CCOc1cc2c(cc1OC)-c1cc(N(CCO)c3c(C)cc(C)cc3C)nc(=O)n1CC2 [Compound 75]")
4.51
>>> measured_value("CCOc1cc2c(cc1OC)-c1cc(N(CCCO)c3c(C)cc(C)cc3C)nc(=O)n1CC2 [Compound 60]")
4.38
>>> measured_value("CCOc1cc2c(cc1OC)-c1cc(N(CCNC(=O)NOC)c3c(C)cc(C)cc3C)nc(=O)n1CC2 [Compound 86]")
4.54

----------
IC50 overview
- TARGET_ENTITY: PDE4B1 (Homo sapiens)
- Construct: purchased Sigma
- EXPERIMENTAL_PROTOCOL: In vitro inhibitory effect on PDE4B1 enzyme (AMP-Glo assay)
- Format: biochemical
- COND: AMP-Glo Assay Kit, substrate cAMP, 23°C, 10 minutes; read-out: PDE4B1 (IC50)
MEASUREMENT_NAME: IC50 (µM)

>>> measured_value("COc1cc2c(cc1OC)-c1c/c(=N\\c3c(C)cc(C)cc3C)n(CCNC(N)=O)c(=O)n1CC2 [Ensifentrine, reference compound]")
0.102
>>> measured_value("COc1cc2c(cc1OC)-c1cc(=Nc3c(C)cc(C)cc3C)n(CCC(C)(C)O)c(=O)n1CC2")
5
>>> measured_value("COc1cc2c(cc1OC)-c1cc(N(c3c(C)cc(C)cc3C)C3CN(C(=O)c4nnc[nH]4)C3)nc(=O)n1CC2")
8.88
>>> measured_value("CCOc1cc2c(cc1OC)-c1cc(N(CCNC(=O)c3c[nH]nn3)c3c(C)cc(C)cc3C)nc(=O)n1CC2")
0.0084
>>> measured_value("CCOc1cc2c(cc1OC)-c1cc(N(CCNC(=O)N3CCOCC3CO)c3c(C)cc(C)cc3C)nc(=O)n1CC2 (stereo not shown)")
0.0373
>>> measured_value("COc1cc2c(cc1OCC(F)(F)F)CCn1c-2cc(=Nc2c(C)cc(C)cc2C)n(CCNC(=O)c2c(O)nnn2C)c1=O")
0.419
>>> measured_value("CCOc1cc2c(cc1OC)-c1cc(N(CCNC(N)=O)c3c(C)cc(C)cc3C)nc(=O)n1CC2")
0.0075

----------
- TARGET_ENTITY: PDE4B1 (Homo sapiens)
- Construct: purchased Sigma
- EXPERIMENTAL_PROTOCOL: In vitro inhibitory effect on PDE4B1 enzyme (AMP-Glo assay)
- Format: biochemical
- Method: 1. Table 1 Main reagents and consumables for in vitro detection of inhibitory effect 2. Preparation of experimental buffers Reaction buffer (5×): 50 mM Tris-HCl (buffer), 50 mM MgCl2, 0.5% BSA, 0.25% Tween-20, pH 7.4, stored at -20°C. 3. […] After centrifugation and sealing, the plate was incubated in the incubator at 23°C for 60 minutes. • 7) The readout was recorded using a multimode microplate reader. […]
pIC50: −log10 of the molar value.
The entries below are paired with their reported pIC50.
MEASUREMENT_NAME: pIC50

>>> measured_value("COc1cc2c(cc1OC)-c1cc(N(c3c(C)cc(C)cc3C)C3CCN(C(=O)c4c(O)nnn4C)C3)nc(=O)n1CC2 (stereo not drawn) [Compound 35]")
5.89
>>> measured_value("COc1cc2c(cc1OC)-c1cc(=Nc3c(C)cc(C)cc3C)n(CCNC(N)=O)c(=O)n1CCO2 [Compound 22]")
6.14
>>> measured_value("COc1cc2c(cc1OC)-c1cc(N(c3c(C)cc(C)cc3C)C3CN(C(=O)c4[nH]nnc4C)C3)nc(=O)n1CC2 [Compound 50]")
7.17

----------
- TARGET_ENTITY: PDE4B1 (Homo sapiens, UniProt Q07343)
- Construct: purchased Sigma
- Sequence (Q07343 whole entry): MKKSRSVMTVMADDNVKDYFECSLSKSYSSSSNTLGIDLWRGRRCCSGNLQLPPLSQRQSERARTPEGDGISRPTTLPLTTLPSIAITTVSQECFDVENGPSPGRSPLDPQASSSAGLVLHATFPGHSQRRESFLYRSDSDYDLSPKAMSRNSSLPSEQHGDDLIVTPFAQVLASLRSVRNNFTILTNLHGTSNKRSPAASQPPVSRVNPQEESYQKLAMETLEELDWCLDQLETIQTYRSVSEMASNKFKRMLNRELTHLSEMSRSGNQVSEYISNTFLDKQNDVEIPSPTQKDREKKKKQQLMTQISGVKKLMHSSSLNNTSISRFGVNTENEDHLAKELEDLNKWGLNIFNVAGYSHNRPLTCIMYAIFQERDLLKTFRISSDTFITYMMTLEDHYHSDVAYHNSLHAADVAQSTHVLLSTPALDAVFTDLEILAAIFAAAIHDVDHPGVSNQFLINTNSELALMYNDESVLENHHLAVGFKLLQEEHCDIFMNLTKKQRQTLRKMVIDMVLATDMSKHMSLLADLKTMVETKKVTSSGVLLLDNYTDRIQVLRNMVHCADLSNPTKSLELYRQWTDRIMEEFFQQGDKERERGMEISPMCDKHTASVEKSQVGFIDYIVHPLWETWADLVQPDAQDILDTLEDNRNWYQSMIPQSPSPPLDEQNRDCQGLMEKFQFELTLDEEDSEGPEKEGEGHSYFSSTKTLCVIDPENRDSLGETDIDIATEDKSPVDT
- EXPERIMENTAL_PROTOCOL: In vitro inhibitory effect on PDE4B1 enzyme (AMP-Glo assay)
- Format: biochemical
Reported IC50 by item:
MEASUREMENT_NAME: IC50 (nM)

>>> measured_value("CCOc1cc2c(cc1OC)-c1cc(N(CCCO)c3c(C)cc(C)cc3C)nc(=O)n1CC2")
6.3
>>> measured_value("CCOc1cc2c(cc1OC)-c1cc(=Nc3c(C)cc(C)cc3C)n(CCNC(=O)c3cccn(C)c3=O)c(=O)n1CC2")
0.89
>>> measured_value("COc1cc2c(cc1OC)-c1cc(=Nc3c(C)cc(C)cc3C)n(CCNC(=O)c3cccn(C)c3=O)c(=O)n1CC2")
18.7

----------
- TARGET_ENTITY: PDE3A (Homo sapiens, UniProt Q14432)
- Construct: purchased BPS
- Sequence (Q14432 whole entry): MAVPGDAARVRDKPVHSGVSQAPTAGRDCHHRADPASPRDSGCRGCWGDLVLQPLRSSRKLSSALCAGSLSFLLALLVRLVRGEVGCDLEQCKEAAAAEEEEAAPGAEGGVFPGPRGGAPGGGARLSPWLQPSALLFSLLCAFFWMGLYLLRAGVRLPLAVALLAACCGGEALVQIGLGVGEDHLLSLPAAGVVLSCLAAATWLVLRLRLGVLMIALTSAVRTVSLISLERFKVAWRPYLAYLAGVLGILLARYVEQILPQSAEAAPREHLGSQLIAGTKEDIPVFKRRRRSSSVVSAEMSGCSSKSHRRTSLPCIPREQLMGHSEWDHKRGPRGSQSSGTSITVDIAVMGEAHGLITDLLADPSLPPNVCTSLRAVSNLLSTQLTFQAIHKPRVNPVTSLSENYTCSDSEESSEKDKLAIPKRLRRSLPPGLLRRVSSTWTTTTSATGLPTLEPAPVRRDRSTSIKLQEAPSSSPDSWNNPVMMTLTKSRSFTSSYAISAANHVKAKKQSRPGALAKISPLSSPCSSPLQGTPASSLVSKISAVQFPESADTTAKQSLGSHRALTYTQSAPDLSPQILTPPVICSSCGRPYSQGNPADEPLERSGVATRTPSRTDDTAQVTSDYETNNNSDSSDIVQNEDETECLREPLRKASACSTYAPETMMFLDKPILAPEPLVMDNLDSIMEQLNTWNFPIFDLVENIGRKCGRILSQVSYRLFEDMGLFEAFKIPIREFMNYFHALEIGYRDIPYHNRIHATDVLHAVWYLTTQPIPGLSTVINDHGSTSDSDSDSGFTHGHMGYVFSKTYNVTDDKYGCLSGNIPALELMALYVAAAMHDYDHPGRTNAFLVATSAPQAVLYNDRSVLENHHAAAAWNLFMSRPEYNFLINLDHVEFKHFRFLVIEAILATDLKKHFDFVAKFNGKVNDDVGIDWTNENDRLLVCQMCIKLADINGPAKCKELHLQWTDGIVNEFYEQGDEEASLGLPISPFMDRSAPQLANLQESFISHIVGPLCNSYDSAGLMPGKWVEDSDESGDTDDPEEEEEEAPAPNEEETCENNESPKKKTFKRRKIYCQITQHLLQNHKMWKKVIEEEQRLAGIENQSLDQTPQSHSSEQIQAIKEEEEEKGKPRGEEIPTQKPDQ
- EXPERIMENTAL_PROTOCOL: In vitro inhibitory effect on PDE3A enzyme (AMP-Glo assay)
- Assay type: biochemical
The label is yes for IC50 below 0.4 nM and no for IC50 equal to or exceeding 0.4 nM.

>>> label("COc1cc2c(cc1OC)-c1cc(N(CCNC(=O)c3c(O)nnn3C)c3c(C)cc(C)cc3C)nc(=O)n1CC2 [Compound 44]")
"yes"
>>> label("Cc1cc(C)c(N=c2cc3n(c(=O)n2CCNC(N)=O)CCc2cc4c(cc2-3)OCCO4)c(C)c1 [Compound 13]")
"no"
>>> label("COc1cc2c(cc1OC)-c1cc(N(c3c(C)cc(C)cc3C)C3CN(C(=O)c4[nH]nnc4C)C3)nc(=O)n1CC2 [Compound 50]")
"yes"
>>> label("COc1cc2c(cc1OC)-c1cc(=Nc3c(C)cc(C)cc3C)n(CCNC(=O)NC3CCNCC3)c(=O)n1CC2 [Compound 67]")
"no"
>>> label("CCOc1cc2c(cc1OC)-c1cc(N(CCCO)c3c(C)cc(C)cc3C)nc(=O)n1CC2 [Compound 60]")
"yes"
>>> label("CCOc1cc2c(cc1OC)-c1cc(N(CCNC(=O)c3c(O)nnn3C)c3c(C)cc(C)cc3C)nc(=O)n1CC2 [Compound 43]")
"yes"
>>> label("COc1cc2c(cc1OC)-c1cc(=Nc3c(C)cc(C)cc3C)n(CCNC(=O)N3Cc4cn(C5CC5)nc4C3)c(=O)n1CC2 [Compound 68]")
"no"
>>> label("COc1cc2c(cc1OC)-c1cc(=Nc3c(C)cc(C)cc3C)n(CCNC(=O)c3cccn(CC(F)(F)F)c3=O)c(=O)n1CC2 [Compound 55]")
"no"
>>> label("CCOc1cc2c(cc1OC)-c1cc(=Nc3c(C)cc(C)cc3C)n(CCNC(=O)c3c(O)nnn3C)c(=O)n1CC2 [Compound 23]")
"yes"
>>> label("CCOc1cc2c(cc1OC)-c1cc(N(CCC(=O)NCCO)c3c(C)cc(C)cc3C)nc(=O)n1CC2 [Compound 82]")
"yes"
>>> label("COc1cc2c(cc1OC1CCOC1)CCn1c-2cc(=Nc2c(C)cc(C)cc2C)n(CCNC(N)=O)c1=O (centres unmarked) [Compound 25]")
"no"
>>> label("COCCOc1cc2c(cc1OC)-c1cc(=Nc3c(C)cc(C)cc3C)n(CCNC(=O)c3c(O)nnn3C)c(=O)n1CC2 [Compound 28]")
"no"
>>> label("COc1cc2c(cc1OC)-c1cc(N(c3c(C)cc(C)cc3C)C3CCN(C(=O)c4c(O)nnn4C)C3)nc(=O)n1CC2 (centres unmarked) [Compound 35]")
"no"
>>> label("CCOc1cc2c(cc1OC)-c1cc(=Nc3c(C)cc(C)cc3C)n(CCNC(=O)NOC)c(=O)n1CC2 [Compound 85]")
"yes"
>>> label("CCOc1cc2c(cc1OC)-c1cc(N(c3c(C)cc(C)cc3C)C3CC(NC(=O)c4c(O)nnn4C)C3)nc(=O)n1CC2 (centres unmarked) [Compound 31]")
"no"
>>> label("COc1cc2c(cc1OC)-c1cc(N(CCC#N)c3c(C)cc(C)cc3C)nc(=O)n1CC2 [Compound 1]")
"yes"
>>> label("CCOc1cc2c(cc1OC)-c1cc(N(CCN)c3c(C)cc(C)cc3C)nc(=O)n1CC2 [Compound 42]")
"no"
>>> label("CCOc1cc2c(cc1OC)-c1cc(=Nc3c(C)cc(C)cc3C)n(CCNC(=O)c3cccn(C)c3=O)c(=O)n1CC2 [Compound 52]")
"yes"
>>> label("COc1cc2c(cc1OC)-c1cc(=Nc3c(C)cc(C)cc3C)n(CCNC(N)=O)c(=O)n1CCO2 [Compound 22]")
"no"
>>> label("CCOc1cc2c(cc1OC)-c1cc(N(CC(=O)O)c3c(C)cc(C)cc3C)nc(=O)n1CC2 [Compound 76]")
"yes"
>>> label("CCOc1cc2c(cc1OC)-c1cc(N(c3c(C)cc(C)cc3C)C(CO)CO)nc(=O)n1CC2 [Compound 80]")
"yes"
>>> label("COc1cc2c(cc1OC)-c1cc(N(CCNC(N)=O)c3c(C)cc(C)cc3C)nc(=O)n1CC2 [Compound 45]")
"yes"
>>> label("CONC(=O)NCCn1c(=Nc2c(C)cc(C)cc2C)cc2n(c1=O)CCc1cc(OC)c(OC)cc1-2 [Compound 8]")
"no"
>>> label("CCOc1cc2c(cc1OC)-c1cc(N(CCC(=O)O)c3c(C)cc(C)cc3C)nc(=O)n1CC2 [Compound 61]")
"yes"
>>> label("COc1cc2c(cc1OC)-c1cc(=Nc3c(C)cc(C)cc3C)n(CCNC(=O)OCC(O)CCO)c(=O)n1CC2 (centres unmarked) [Compound 69]")
"no"
>>> label("COc1cc2c(cc1OC)S(=O)(=O)CCn1c-2cc(=Nc2c(C)cc(C)cc2C)n(CCNC(N)=O)c1=O [Compound 21]")
"no"
